Reference source for all entries: BindingDB's records for doi:10.1021/jm00020a029

PROCEDURE_TEXT: Evaluated for the activation of human thrombin receptor measured by platelet aggregation
Where a SMILES comes first, the peptide text is derived from it. [ ]: non-standard residue; d: D form. Phe(4-F) = N[C@@H](Cc1ccc(F)cc1)C(=O)O; GABA = NCCCC(=O)O
OUTCOME_MEASURE: EC50 (µM)
Express it in µM; write the number only.

Lab note: measured EC50 of CC(C)C[C@H](NC(=O)[C@H](CC(C)C)NC(=O)[C@H](Cc1ccccc1)NC(=O)CCCN)C(=O)N[C@@H](CCCNC(=N)N)C(N)=O (H-[GABA]FLLR-NH2) was 730

Lab note: measured EC50 of CC(C)C[C@H](NC(=O)[C@H](CC(C)C)NC(=O)[C@H](Cc1ccccc1)NC(=O)[C@@H](N)CO)C(=O)N[C@@H](CCCNC(=N)N)C(N)=O was 1

Lab note: measured EC50 of CC(C)C[C@H](NC(=O)[C@H](Cc1ccc(F)cc1)NC(=O)[C@H](C)N)C(=O)N[C@@H](CCCNC(=N)N)C(=O)N[C@@H](CCCNC(=N)N)C(N)=O (H-A[Phe(4-F)]LRR-NH2) was 40

Lab note: measured EC50 of CC(C)C[C@H](NC(=O)[C@H](CC(C)C)NC(=O)[C@H](Cc1ccccc1)NC(=O)CN)C(=O)N[C@@H](CCCNC(=N)N)C(N)=O (H-GFLLR-NH2) was 1.2

Lab note: measured EC50 of CC(C)C[C@H](NC(=O)[C@H](CC(C)C)NC(=O)[C@H](Cc1ccccc1)NC(=O)[C@@H](N)Cc1cnc[nH]1)C(=O)N[C@@H](CCCNC(=N)N)C(N)=O (H-HFLLR-NH2) was 31

====

PROCEDURE_TEXT: Evaluated for the activity of Radio-ligand Peptides upon the activation of human thrombin receptor measured by platelet aggregation
*1 amine or outer side, *2 acyl side, *3 side chain or, on linkers, in order; H or OH if unused. Where a SMILES comes first, the peptide text is derived from it. [ ]: non-standard residue; d: D form. ξ: configuration not given here. Phe(3,4-Cl2) = N[C@@H](Cc1ccc(Cl)c(Cl)c1)C(=O)O; X1 = COc1c(I)cc(C[C@H](N[*:1])C(=O)[*:2])cc1I; ξTyr(3,5-I2) = NC(Cc1cc(I)c(O)c(I)c1)C(=O)O; Tyr(3-I) = N[C@@H](Cc1ccc(O)c(I)c1)C(=O)O; Phe(4-F) = N[C@@H](Cc1ccc(F)cc1)C(=O)O; hArg = N=C(N)NCCCC[C@H](N)C(=O)O; Cha = N[C@@H](CC1CCCCC1)C(=O)O
Could you please report measured EC50 for the items listed next?
Express it in nM; write the number only.

Lab note: measured EC50 of C[C@H](N)C(=O)N[C@@H](Cc1ccc(F)cc1)C(=O)N[C@@H](CCCN=C(N)N)C(=O)N[C@@H](CC1CCCCC1)C(=O)N[C@@H](CCCCN=C(N)N)C(=O)N[C@@H](Cc1ccc(O)c(I)c1)C(N)=O (H-A[Phe(4-F)]R[Cha][hArg][Tyr(3-I)]-NH2) was 30

Lab note: measured EC50 of C[C@H](N)C(=O)N[C@@H](Cc1ccc(F)cc1)C(=O)N[C@@H](CCCNC(=N)N)C(=O)N[C@@H](CC1CCCCC1)C(=O)N[C@@H](CCCCNC(=N)N)C(=O)NC(Cc1cc(I)c(O)c(I)c1)C(N)=O (some centres undefined) (H-A[Phe(4-F)]R[Cha][hArg][ξTyr(3,5-I2)]-NH2) was 150

Lab note: measured EC50 of CC(C)C[C@H](NC(=O)[C@H](Cc1ccc(Cl)c(Cl)c1)NC(=O)[C@H](C)N)C(=O)N[C@@H](CC1CCCCC1)C(=O)N[C@@H](CCCNC(=N)N)C(N)=O (H-A[Phe(3,4-Cl2)]L[Cha]R-NH2) was 300

Lab note: measured EC50 of COc1c(I)cc(C[C@H](NC(=O)[C@H](Cc2ccc(Cl)c(Cl)c2)NC(=O)[C@H](C)N)C(=O)N[C@@H](CC2CCCCC2)C(=O)N[C@@H](CCCNC(=N)N)C(N)=O)cc1I (H-A[Phe(3,4-Cl2)][X1][Cha]R-NH2) was 1500
